meta.source: patent US4208426A

Test system: homologous PCA reaction
Procedure Details: Homologous passive cutaneous anaphylaxis (PCA) reaction
Assay type: in vivo, rat (SD (Sprague-Dawley) strain)
Condition Label: rat; 20 mg/Kg p.o., before one hour
Procedure: Anti-egg albumin rat serum in amount of 0.1 ml was intracutaneously injected to the shaved back of a mail rat of SD (Sprague-Dawley) strain weighing 200±30 g. The egg-albumin as antigen in amount of 5 mg/Kg were intravenously injected, together with 40 mg/Kg of dye (Evans blue) 24 hours after antiserum injection. […] The amount of the dye leaked at the reaction locus was measured by extraction method according to Katayama et al.; Microbiol. […]
Label scheme for Inhibition rate of PCA reaction: lower than 60% is 0.0, 60% and above is 1.0.

Molecule	Classification
CCOC(=O)c1cc(=O)c2cc3c(c(C)c2o1)OC(C)(C)CC3C (stereo not shown)	1.0
CCOC(=O)c1cc(=O)c2cc3c(c(OC)c2o1)OC(C)(C)CC3C (stereo not shown)	1.0
CCOC(=O)c1cc(=O)c2c(C)c3c(c(CC)c2o1)OC(C)(C)CC3C (stereo not shown)	1.0
O=C(O)c1cc(=O)c2c(OCC(O)COc3cccc4oc(C(=O)O)cc(=O)c34)cccc2o1 [Chromoglycate, reference compound]	0.0
CCOC(=O)c1cc(=O)c2c(C)c3c(c(C)c2o1)OC(C)(C)C(C)C3 (stereo not shown)	0.0

Reported Inhibition rate of PCA reaction at or above 60%? Cc1c2c(cc3c(=O)cc(C(=O)O)oc13)C(C)CC(C)(C)O2 (stereo not shown)
1.0

// inclusive: Inhibition rate of PCA reaction at least 60%? input: CCOC(=O)c1cc(=O)c2cc3c(cc2o1)OCCC3C (stereo not shown) [reference compound]
0.0
